EXPERIMENT SUMMARY: Individual serum elimination rate and half-life (linear regression per employee)
TEST CONTEXT: individual estimate, subject 2, 5 samples
MEASUREMENT KIND: Elimination rate (yearly)
State just the number; it will be interpreted in yearly.

Record request: Elimination rate value, item O=S(=O)(O)C(F)(F)C(F)(F)C(F)(F)C(F)(F)C(F)(F)F 0.6

Record request: Elimination rate value, item O=S(=O)(O)C(F)(C(F)(F)F)C(F)(F)C(F)(F)C(F)(F)C(F)(F)C(F)(F)C(F)(F)F (stereo not drawn) [1m-PFOS, perfluoro-1-methylheptanesulfonate] 0.1

Record request: Elimination rate value, item O=C(O)C(F)(F)C(F)(F)C(F)(F)C(F)(F)C(F)(F)C(F)(F)F 3.7

Record request: Elimination rate value, item O=S(=O)(O)C(F)(F)C(F)(F)C(F)(F)C(F)(F)C(F)(F)C(F)(F)F 0.3

Record request: Elimination rate value, item O=S(=O)(O)C(F)(F)C(F)(F)C(F)(F)C(F)(F)C(F)(F)C(F)(F)C(F)(F)C(F)(F)F 0.4

Record request: Elimination rate value, item O=C(O)C(F)(F)C(F)(F)C(F)(F)C(F)(F)C(F)(F)F −0.1
